// provenance: BindingDB's records for doi:10.1016/j.bmcl.2015.06.011

Protocol Text: Inhibition of PI3Kalpha in human HCT116 cells assessed as cell growth inhibition after 24 hrs by MTT assay
Measurement Label: IC50 (µM)

Here are 2 compounds together with their reported answers.
Compound	Unit Symbol	Measured Result
COc1ccc(C(=O)C(O)c2ccc(OC)cc2)cc1 (centres undefined)	µM	1170
O=C(OC(C(=O)c1ccccc1)c1ccccc1)c1ccccc1 (centres undefined)	µM	2660

A. O=C(c1ccccc1)C(O)c1ccccc1 (centres undefined)
B. O=C(OC(C(=O)c1ccccc1)c1ccccc1)c1cccc(F)c1 (centres undefined)
Please choose the item with the lower IC50 value from this pair: A and B Please reply using the label of the selected record.
B

1. O=C(OC(C(=O)c1ccccc1)c1ccccc1)c1ccc(F)cc1 (centres undefined)
2. O=C(OC(C(=O)c1ccccc1)c1ccccc1)c1ccc(Cl)cc1 (centres undefined)
Select one: 1 or 2 . Criterion: greater recorded IC50. Please reply using the label of the selected record.
1
(1: 1290 µM, 2: 730 µM)

I. O=C(OC(C(=O)c1ccccc1)c1ccccc1)c1ccc([N+](=O)[O-])cc1 (centres undefined)
II. COc1ccc(C(=O)C(OC(=O)c2ccc(F)cc2)c2ccc(OC)cc2)cc1 (centres undefined)
Please choose the item with the lower IC50 value from this pair: I and II Please reply using the label of the selected record.
I

----------
Protocol Text: Inhibition of PI3Kalpha H1047R mutant in human HCT116 cells assessed as cell growth inhibition after 24 hrs by MTT assay
pIC50: −log10 of the molar value.
Measurement Label: pIC50

Compound	Measurement Label	Measured Result
COc1ccc(C(=O)C(O)c2ccc(OC)cc2)cc1 (centres undefined)	pIC50	2.93
O=C(OC(C(=O)c1ccccc1)c1ccccc1)c1cccc(F)c1 (centres undefined)	pIC50	3.01
O=C(OC(C(=O)c1ccccc1)c1ccccc1)c1ccccc1F (centres undefined)	pIC50	3.04
O=C(OC(C(=O)c1ccccc1)c1ccccc1)c1ccc([N+](=O)[O-])cc1 (centres undefined)	pIC50	3.06
O=C(OC(C(=O)c1ccccc1)c1ccccc1)c1ccccc1 (centres undefined)	pIC50	2.58
COc1ccc(C(=O)C(OC(=O)c2ccc(F)cc2)c2ccc(OC)cc2)cc1 (centres undefined)	pIC50	2.55

I. O=C(c1ccccc1)C(O)c1ccccc1 (centres undefined)
II. O=C(OC(C(=O)c1ccccc1)c1ccccc1)c1ccc(F)cc1 (centres undefined)
III. O=C(OC(C(=O)c1ccccc1)c1ccccc1)c1ccc(Cl)cc1 (centres undefined)
Which order do these items take when sorted by rising pIC50? List them. To answer, write out the labels according to the requested order.
I, II, III
